- Assay name: Pharmacokinetics and tissue distribution after single intravenous administration
- Type: in vivo, mouse
- Run conditions: ICR, mouse, iv; mice, single i.v. 10 mg/kg; Brain
Measured parameter: AUC(0-t) (ng·h/mL)
Write the answer as a number in ng·h/mL, unit excluded.

*Q* Return AUC(0-t) for the following compound: O=C(CCc1ccc(C(F)(F)F)cc1)O[C@@H]1C(=O)NCCc2c([nH]c3ccccc23)[C@H]1c1ccc(C(F)(F)F)cc1 [(+)3C-20]
*A* 2980

---

- Assay name: Pharmacokinetics and tissue distribution after single intravenous administration
- Format: in vivo, mouse
- Run conditions: ICR, mouse, iv; mice, single i.v. 10 mg/kg; Heart
Measured parameter: C0
Value and unit, in that order.

*Q* Give a short answer stating reported C0 for O=C(CCc1ccc(C(F)(F)F)cc1)O[C@@H]1C(=O)NCCc2c([nH]c3ccccc23)[C@H]1c1ccc(C(F)(F)F)cc1 [(+)3C-20] .
*A* 6890 ng/mL

---

- Assay name: Pharmacokinetics and tissue distribution after single intravenous administration
- Format: in vivo, mouse
- Run conditions: ICR, mouse, iv; mice, single i.v. 10 mg/kg; Blood
Measured parameter: Cmax (µg/mL)
Form entry: value (µg/mL) — number only.

*Q* Consider the compound O=C(CCc1ccc(C(F)(F)F)cc1)O[C@@H]1C(=O)NCCc2c([nH]c3ccccc23)[C@H]1c1ccc(C(F)(F)F)cc1 [(+)3C-20] . State its measured Cmax.
*A* 2.34

---

- Assay name: Pharmacokinetics and tissue distribution after single intravenous administration
- Format: in vivo, mouse
- Run conditions: ICR, mouse, liver, iv; mice, single i.v. 10 mg/kg; 6 h; read-out: Concentration of (+)3C-20, Liver
- Procedure: Pharmacokinetic studies were performed as previously described.^[ [63] ^] Briefly, ICR mice were fasted without water for 16 h before drug administration and allowed access to food and water freely after administration. […]
Measured parameter: concentration at 6 h (ng/g)
Quick reminder: number only, in ng/g, skip the unit.

*Q* Specify measured concentration at 6 h for O=C(CCc1ccc(C(F)(F)F)cc1)O[C@@H]1C(=O)NCCc2c([nH]c3ccccc23)[C@H]1c1ccc(C(F)(F)F)cc1 [(+)3C-20] .
*A* 159

---

- Assay name: Pharmacokinetics and tissue distribution after single intravenous administration
- Assay type: in vivo, mouse
- Run conditions: ICR, mouse, iv; mice, single i.v. 10 mg/kg; Spleen
Measured parameter: k el
Note to self: number, then unit, no commentary.

*Q* Give reported k el value for O=C(CCc1ccc(C(F)(F)F)cc1)O[C@@H]1C(=O)NCCc2c([nH]c3ccccc23)[C@H]1c1ccc(C(F)(F)F)cc1 [(+)3C-20]
*A* 0.000161 s⁻¹

---

- Assay name: Pharmacokinetics and tissue distribution after single intravenous administration
- Assay type: in vivo, mouse
- Run conditions: ICR, mouse, iv; mice, single i.v. 10 mg/kg; Liver
Measured parameter: C0
Note: state the figure and append the unit.

*Q* Provide C0 value for the following molecule: O=C(CCc1ccc(C(F)(F)F)cc1)O[C@@H]1C(=O)NCCc2c([nH]c3ccccc23)[C@H]1c1ccc(C(F)(F)F)cc1 [(+)3C-20]
*A* 6050 ng/mL

---

- Assay name: Pharmacokinetics and tissue distribution after single intravenous administration
- Format: in vivo, mouse
- Run conditions: ICR, mouse, brain, iv; mice, single i.v. 10 mg/kg; 0.5 h; read-out: Concentration of (+)3C-20, Brain
- Method: Pharmacokinetic studies were performed as previously described.^[ [63] ^] Briefly, ICR mice were fasted without water for 16 h before drug administration and allowed access to food and water freely after administration. […]
Measured parameter: concentration at 0.5 h (ng/g)
Give the number; ng/g is assumed, so skip it.

*Q* Tell us which concentration at 0.5 h value is on record for O=C(CCc1ccc(C(F)(F)F)cc1)O[C@@H]1C(=O)NCCc2c([nH]c3ccccc23)[C@H]1c1ccc(C(F)(F)F)cc1 [(+)3C-20]
*A* 518

---

- Assay name: Pharmacokinetics and tissue distribution after single intravenous administration
- Type: in vivo, mouse
- Run conditions: ICR, mouse, iv; mice, single i.v. 10 mg/kg; Plasma
Measured parameter: clearance (mL/min/kg)
Record the value in mL/min/kg, omitting the unit from your answer.

*Q* Check the records and state clearance for O=C(CCc1ccc(C(F)(F)F)cc1)O[C@@H]1C(=O)NCCc2c([nH]c3ccccc23)[C@H]1c1ccc(C(F)(F)F)cc1 [(+)3C-20]
*A* 35.2

---

- Assay name: Pharmacokinetics and tissue distribution after single intravenous administration
- Type: in vivo, mouse
- Run conditions: ICR, mouse, iv; mice, single i.v. 10 mg/kg; Brain; read-out: t1/2 (converted)
- Protocol: Pharmacokinetic studies were performed as previously described.^[ [63] ^] Briefly, ICR mice were fasted without water for 16 h before drug administration and allowed access to food and water freely after administration. […]
Measured parameter: half-life (h)
Report only the number, with the unit h understood.

*Q* Could you please provide reported half-life for O=C(CCc1ccc(C(F)(F)F)cc1)O[C@@H]1C(=O)NCCc2c([nH]c3ccccc23)[C@H]1c1ccc(C(F)(F)F)cc1 [(+)3C-20] ? Thanks!
*A* 5.57

---

- Assay name: Pharmacokinetics and tissue distribution after single intravenous administration
- Assay type: in vivo, mouse
- Run conditions: ICR, mouse, iv; mice, single i.v. 10 mg/kg; Liver
Measured parameter: AUC(0-t) (ng·h/mL)
Report the figure in ng·h/mL without appending any unit label.

*Q* State its AUC(0-t) for this molecule: O=C(CCc1ccc(C(F)(F)F)cc1)O[C@@H]1C(=O)NCCc2c([nH]c3ccccc23)[C@H]1c1ccc(C(F)(F)F)cc1 [(+)3C-20]
*A* 14900

---

- Assay name: Pharmacokinetics and tissue distribution after single intravenous administration
- Format: in vivo, mouse
- Run conditions: ICR, mouse, iv; mice, single i.v. 10 mg/kg; Blood; read-out: VdSS
Measured parameter: Vd

*Q* Output Vd of O=C(CCc1ccc(C(F)(F)F)cc1)O[C@@H]1C(=O)NCCc2c([nH]c3ccccc23)[C@H]1c1ccc(C(F)(F)F)cc1 [(+)3C-20]
*A* 12.3 L/kg

---

- Assay name: Pharmacokinetics and tissue distribution after single intravenous administration
- Assay type: in vivo, mouse
- Run conditions: ICR, mouse, iv; mice, single i.v. 10 mg/kg; Blood
Measured parameter: AUC(0-t) (ng·h/mL)
The figure you give is taken to be in ng·h/mL; do not add the unit.

*Q* Hello, please tell me recorded AUC(0-t) for this one: O=C(CCc1ccc(C(F)(F)F)cc1)O[C@@H]1C(=O)NCCc2c([nH]c3ccccc23)[C@H]1c1ccc(C(F)(F)F)cc1 [(+)3C-20]
*A* 3470

---

- Assay name: Pharmacokinetics and tissue distribution after single intravenous administration
- Type: in vivo, mouse
- Run conditions: ICR, mouse, iv; mice, single i.v. 10 mg/kg; Kidney
- Protocol: Pharmacokinetic studies were performed as previously described.^[ [63] ^] Briefly, ICR mice were fasted without water for 16 h before drug administration and allowed access to food and water freely after administration. […]
Measured parameter: AUC(0-inf) (ng·h/mL)
Provide only the numeric value, understood in ng·h/mL.

*Q* # return recorded AUC(0-inf) for input O=C(CCc1ccc(C(F)(F)F)cc1)O[C@@H]1C(=O)NCCc2c([nH]c3ccccc23)[C@H]1c1ccc(C(F)(F)F)cc1 [(+)3C-20]
*A* 3980

---

- Assay name: Pharmacokinetics and tissue distribution after single intravenous administration
- Type: in vivo, mouse
- Run conditions: ICR, mouse, kidney, iv; mice, single i.v. 10 mg/kg; 2 h; read-out: Concentration of (+)3C-20, Kidney
Measured parameter: concentration at 2 h (ng/g)
Report the value in ng/g with no unit label.

*Q* Specify reported concentration at 2 h for the molecule shown: O=C(CCc1ccc(C(F)(F)F)cc1)O[C@@H]1C(=O)NCCc2c([nH]c3ccccc23)[C@H]1c1ccc(C(F)(F)F)cc1 [(+)3C-20]
*A* 2840

---

- Assay name: Pharmacokinetics and tissue distribution after single intravenous administration
- Format: in vivo, mouse
- Run conditions: ICR, mouse, iv; mice, single i.v. 10 mg/kg; Blood
- Procedure: Pharmacokinetic studies were performed as previously described.^[ [63] ^] Briefly, ICR mice were fasted without water for 16 h before drug administration and allowed access to food and water freely after administration. […]
Measured parameter: k el (s⁻¹)
State the answer as a number, implicitly in s⁻¹.

*Q* Identify the reported k el for the following entry. O=C(CCc1ccc(C(F)(F)F)cc1)O[C@@H]1C(=O)NCCc2c([nH]c3ccccc23)[C@H]1c1ccc(C(F)(F)F)cc1 [(+)3C-20]
*A* 3.36e-05

---

- Assay name: Pharmacokinetics and tissue distribution after single intravenous administration
- Type: in vivo, mouse
- Run conditions: ICR, mouse, liver, iv; mice, single i.v. 10 mg/kg; 0.5 h; read-out: Concentration of (+)3C-20, Liver
Measured parameter: concentration at 0.5 h (ng/g)
Entry rule: numbers only, all in ng/g.

*Q* Consider the compound O=C(CCc1ccc(C(F)(F)F)cc1)O[C@@H]1C(=O)NCCc2c([nH]c3ccccc23)[C@H]1c1ccc(C(F)(F)F)cc1 [(+)3C-20] . State its measured concentration at 0.5 h.
*A* 4370
